- ASSAY EXPLANATION: physchem
- CONDITIONS: pH 6.4, Solubility Conc.
Positions of bridges follow the written chain, without caps; N, C: chain ends. Non-standard residues stand in square brackets, D forms with d. Residues, ends and D or L forms follow the SMILES beside them. Groups on a side chain read outwards from the residue. *: point of attachment. Lys(CH2CO2H)2 = N[C@@H](CCCCN(CC(=O)O)CC(=O)O)C(=O)O; C16 diacid = O=C(O)CCCCCCCCCCCCCCC(=O)*; Orn = NCCC[C@H](N)C(=O)O; AEEA = NCCOCCOCC(=O)O
READOUT: solubility (µM)
# value in µM; strip the unit string

Query block: Please give the measured solubility for this molecule: CC(=O)N[C@H]1CCCNC(=O)C[C@@H](C(=O)N2CCC[C@H]2C(=O)N2CCC[C@H]2C(=O)N[C@@H](CCCNC(=N)N)C(=O)N[C@@H](CCC(=O)O)C(=O)N[C@@H](CCCCN(CC(=O)O)CC(=O)O)C(=O)N[C@@H](CCCCNC(=O)COCCOCCNC(=O)CCCCCCCCCCCCCCC(=O)O)C(N)=O)NC(=O)[C@H](Cc2c[nH]c3ccccc23)NC(=O)[C@H](CCCNC(=N)N)NC(=O)[C@@H](Cc2ccccc2)NC(=O)[C@H](Cc2c[nH]cn2)NC1=O [Example 42] (Ac-[Orn]H[dF]RWDPPRE[Lys(CH2CO2H)2]K([AEEA-C16 diacid])-NH2; lactam 1-6)
Result block: 364

----------
- ASSAY EXPLANATION: physchem
- CONDITIONS: pH 5.7, Solubility Conc.
Positions of bridges follow the written chain, without caps; N, C: chain ends. Non-standard residues stand in square brackets, D forms with d. Residues, ends and D or L forms follow the SMILES beside them. Groups on a side chain read outwards from the residue. *: point of attachment. Lys(CH2CO2H)2 = N[C@@H](CCCCN(CC(=O)O)CC(=O)O)C(=O)O; C16 diacid = O=C(O)CCCCCCCCCCCCCCC(=O)*; Orn = NCCC[C@H](N)C(=O)O; AEEA = NCCOCCOCC(=O)O
READOUT: solubility
Include the unit after the number when you answer.

Query block: Please give the measured solubility for this compound: CC(=O)N[C@H]1CCC(=O)NCCC[C@@H](C(=O)N2CCC[C@H]2C(=O)N2CCC[C@H]2C(=O)N[C@@H](CC(=O)O)C(=O)N[C@@H](CCCCN(CC(=O)O)CC(=O)O)C(=O)N[C@@H](CCCCNC(=O)COCCOCCNC(=O)CCCCCCCCCCCCCCC(=O)O)C(N)=O)NC(=O)[C@H](Cc2c[nH]c3ccccc23)NC(=O)[C@H](CCCNC(=N)N)NC(=O)[C@@H](Cc2ccccc2)NC(=O)[C@H](Cc2c[nH]cn2)NC1=O [Example 13] (Ac-EH[dF]RW[Orn]PPD[Lys(CH2CO2H)2]K([AEEA-C16 diacid])-NH2; lactam 1-6)
Result block: 494 µM

----------
- ASSAY EXPLANATION: physchem
- CONDITIONS: pH 4.9, Solubility Conc., pH 4.9; vehicle 10 mM phosphate
Positions of bridges follow the written chain, without caps; N, C: chain ends. Non-standard residues stand in square brackets, D forms with d. Residues, ends and D or L forms follow the SMILES beside them. *: point of attachment. Lys(CH2CO2H)2 = N[C@@H](CCCCN(CC(=O)O)CC(=O)O)C(=O)O; X1 = O=C(O)CCCCCCCCCCCCCCCCC(=O)NCCOCCOCCN*; Dab = NCC[C@H](N)C(=O)O
READOUT: solubility (µM)
# value in µM; strip the unit string

Query block: Please give the measured solubility for this compound: CC(=O)N[C@H]1CCNC(=O)C[C@@H](C(=O)N2CCC[C@H]2C(=O)N[C@@H](CO)C(=O)N[C@@H](CO)C(=O)N[C@@H](CO)C(=O)N[C@@H](CCCCN(CC(=O)O)CC(=O)O)C(=O)N[C@@H](CO)C(=O)N[C@@H](CO)C(=O)NCCOCCOCCNC(=O)CCCCCCCCCCCCCCCCC(=O)O)NC(=O)[C@H](Cc2c[nH]c3ccccc23)NC(=O)[C@H](CCCNC(=N)N)NC(=O)[C@@H](Cc2ccccc2)NC(=O)[C@H](Cc2c[nH]cn2)NC1=O [Example 3] (Ac-[Dab]H[dF]RWDPSSS[Lys(CH2CO2H)2]SS-X1; lactam 1-6)
Result block: 24
